Test: Stability of compound in rat liver microsomes
Assay type: ADME, Microsome

{"smilesStr": "CC(=O)Nc1nc(C)c(-c2cn(S(=O)(=O)c3ccccc3)c3ccccc23)[nH]1", "Stability": "Stable"}
{"smilesStr": "CCC(=O)Nc1nc(C)c(-c2cn(S(=O)(=O)c3ccccc3)c3ccc(OC)cc23)[nH]1", "Stability": "Stable"}
{"smilesStr": "O=S(=O)(c1ccccc1)n1cc(-c2c[n+]3cccnc3[nH]2)c2ccccc21.[Br-]", "Stability": "Unstable"}
{"smilesStr": "Cc1nc(N)[nH]c1-c1ccc2ccn(S(=O)(=O)c3ccccc3)c2c1.Cl", "Stability": "Unstable"}

---

Entries annotated with measured Ki
Target: 5-hydroxytryptamine receptor 2A (Homo sapiens, UniProt P28223)
Sequence (P28223 whole entry): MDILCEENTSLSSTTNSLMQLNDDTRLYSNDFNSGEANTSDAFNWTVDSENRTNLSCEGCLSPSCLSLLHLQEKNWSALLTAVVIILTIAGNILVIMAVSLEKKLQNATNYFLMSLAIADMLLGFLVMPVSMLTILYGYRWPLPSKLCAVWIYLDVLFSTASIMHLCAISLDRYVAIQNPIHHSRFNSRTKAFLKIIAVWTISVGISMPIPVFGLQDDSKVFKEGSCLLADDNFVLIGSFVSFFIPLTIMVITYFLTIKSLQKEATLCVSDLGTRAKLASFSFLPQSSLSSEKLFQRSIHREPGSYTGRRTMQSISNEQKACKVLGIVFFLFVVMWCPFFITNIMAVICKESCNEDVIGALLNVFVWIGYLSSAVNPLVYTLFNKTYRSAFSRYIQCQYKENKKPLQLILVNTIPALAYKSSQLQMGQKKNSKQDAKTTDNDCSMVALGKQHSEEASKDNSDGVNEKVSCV
Assay: Displacement of [3H]ketanserin from human 5HT2A receptor expressed in CHOK1 cells incubated for 1 hr by liquid scintillation counter method
Type: cell-based
Conditions: read-out: Ki

{"smilesStr": "CCC(=O)Nc1nc(C)c(-c2cn(S(=O)(=O)c3ccc4ccccc4c3)c3ccc(OC)cc23)[nH]1", "subjectOfTest": "5-hydroxytryptamine receptor 2A (Homo sapiens, UniProt P28223)", "unitSymbol": "µM", "valuePrefix": ">", "Ki": 10}
{"smilesStr": "CCC(=O)Nc1nc(C)c(-c2ccc3ccn(S(=O)(=O)c4ccccc4)c3c2)[nH]1", "subjectOfTest": "5-hydroxytryptamine receptor 2A (Homo sapiens, UniProt P28223)", "unitSymbol": "µM", "valuePrefix": "=", "Ki": 7.41}
{"smilesStr": "COc1ccc2c(c1)c(-c1c(C)nc(N)n1CC(F)F)cn2S(=O)(=O)c1ccccc1", "subjectOfTest": "5-hydroxytryptamine receptor 2A (Homo sapiens, UniProt P28223)", "unitSymbol": "µM", "valuePrefix": "=", "Ki": 3.24}
{"smilesStr": "CC(=O)Nc1nc(C)c(-c2cn(S(=O)(=O)c3ccccc3)c3ccccc23)[nH]1", "subjectOfTest": "5-hydroxytryptamine receptor 2A (Homo sapiens, UniProt P28223)", "unitSymbol": "µM", "valuePrefix": ">", "Ki": 10}
{"smilesStr": "O=S(=O)(c1ccccc1)n1cc(-c2c[n+]3cccnc3[nH]2)c2ccccc21.[Br-]", "subjectOfTest": "5-hydroxytryptamine receptor 2A (Homo sapiens, UniProt P28223)", "unitSymbol": "µM", "valuePrefix": ">", "Ki": 10}
{"smilesStr": "COc1ccc2c(c1)c(-c1[nH]c(NCC(F)F)nc1C)cn2S(=O)(=O)c1ccccc1", "subjectOfTest": "5-hydroxytryptamine receptor 2A (Homo sapiens, UniProt P28223)", "unitSymbol": "µM", "valuePrefix": "=", "Ki": 1.23}
{"smilesStr": "COc1ccc2c(c1)c(-c1[nH]c(N)nc1C)cn2S(=O)(=O)c1cccc2ccccc12", "subjectOfTest": "5-hydroxytryptamine receptor 2A (Homo sapiens, UniProt P28223)", "unitSymbol": "µM", "valuePrefix": "=", "Ki": 1.66}
{"smilesStr": "COc1ccc2c(c1)c(-c1[nH]c(N)nc1C)cn2S(=O)(=O)c1ccc2ccccc2c1.Cl", "subjectOfTest": "5-hydroxytryptamine receptor 2A (Homo sapiens, UniProt P28223)", "unitSymbol": "µM", "valuePrefix": "=", "Ki": 1.05}
{"smilesStr": "COc1ccc2c(c1)c(-c1[nH]c3cccc[n+]3c1C)cn2S(=O)(=O)c1ccccc1.[Br-]", "subjectOfTest": "5-hydroxytryptamine receptor 2A (Homo sapiens, UniProt P28223)", "unitSymbol": "µM", "valuePrefix": ">", "Ki": 10}
